assay-procedure: qHTS of pediatric cancer cell lines to identify multiple opportunities for drug repurposing: Primary screen for A673 cells (AID 1347092); further: nearly all actives have a fitted effect of over 45% in size
particulars: A673 Ewing sarcoma viability, CellTiter-Glo ATP luminescence, 48 h; series mostly up to 46 µM
Results filed as inconclusive are left out. The source made the active and inactive calls. The call rests on the fitted dose curve; in most records, active means well fitted cell-killing curve with a large enough effect; inconclusive means small, poorly fitted or top-dose-only effect; inactive means no such curve, though single readings can be large or run the other way.
The reply should name one outcome from class 1 = active, class 0 = inactive

Sample answers from the record:
smiles-input: Cc1ccc2c(c1)c1c(n2CCc2ccc(C)nc2)CCN(C)C1
assigned-class: class 0
//
smiles-input: C[C@@H]1[C@H](O)[C@@H](C)C=CC=CC=CC=CC=CC=CC=C[C@H](O[C@@H]2O[C@H](C)[C@H](O)[C@H](N)[C@@H]2O)C[C@@H]2O[C@](O)(C[C@@H](O)C[C@@H](O)[C@H](O)CC[C@@H](O)C[C@@H](O)CC(=O)O[C@H]1C)C[C@H](O)[C@@H]2C(=O)O
assigned-class: class 1
//
smiles-input: CN(C)CCCNC(=O)c1ccc(-c2cc(O)c3ncccc3c2)cc1
assigned-class: class 1
//
smiles-input: CC(=O)OCC(=O)[C@@]12OC(C)(C)O[C@H]1C[C@H]1[C@@H]3C[C@H](F)C4=CC(=O)C=C[C@]4(C)[C@@]3(F)[C@@H](O)C[C@@]12C
assigned-class: class 0

For the next question, use this compound.
Query: recorded result category for CCn1c(-c2nonc2N)nc2cncc(CNC3CCNCC3)c21 in this test
Reply: class 1
